The measured values listed here are drawn from the supplement of paper PMC9112550.

test system: Escherichia coli TOP10; assay: shrunken log2 fold change of peptide-encoding DNA abundance (4.5 h post-induction vs induction); higher = less antimicrobial activity (less host growth inhibition); conditions: time post-induction: 4.5 h; library: site-saturation at positions 5, 18, 19, 20
Task for the reader: assign each of the following sequences its reported shrunken log2 fold change.

Use the examples below as a reference point.
RRIRQRPPRLPRPRPRPWICPRP
0.117
RRIRRRPPRLPRPRPRPSTPPRP
0.225
RRIRHRPPRLPRPRPRPKWRPRP
0.328
RRIRFRPPRLPRPRPRPKQTPRP
1.01
RRIRDRPPRLPRPRPRPQWYPRP
-0.45

For each of the sequences below, state shrunken log2 fold change.
1. RRIRSRPPRLPRPRPRPVDCPRP
2. RRIRKRPPRLPRPRPRPIQIPRP
3. RRIRMRPPRLPRPRPRPGSDPRP
4. RRIRARPPRLPRPRPRPQDGPRP
5. RRIRRRPPRLPRPRPRPNRGPRP
6. RRIRMRPPRLPRPRPRPRGKPRP
7. RRIRLRPPRLPRPRPRPIKFPRP

Output line:
1. -0.12
2. -0.14
3. 1.4
4. 0.214
5. -0.0468
6. 0.97
7. -0.0676

====

test system: Escherichia coli TOP10; assay: shrunken log2 fold change of peptide-encoding DNA abundance (4.5 h post-induction vs induction); higher = less antimicrobial activity (less host growth inhibition); details: time post-induction: 4.5 h; library: site-saturation at positions 5, 18, 19, 20
outcome measure: shrunken log2 fold change
Answers are plain numbers.

Use the examples below as a reference point.
RRIRSRPPRLPRPRPRPKEEPRP
0.0302
RRIRRRPPRLPRPRPRPKDWPRP
0.36
RRIRNRPPRLPRPRPRPMSCPRP
-0.0294
RRIRSRPPRLPRPRPRPETPPRP
1.01
RRIRYRPPRLPRPRPRPFGRPRP
-0.0018
RRIRARPPRLPRPRPRPIVSPRP
0.0293
RRIRARPPRLPRPRPRPCFEPRP
0.438
RRIRPRPPRLPRPRPRPQRYPRP
-0.0398

For each of the sequences below, state shrunken log2 fold change.
1. RRIRSRPPRLPRPRPRPLQAPRP
2. RRIRNRPPRLPRPRPRPDTEPRP
3. RRIRLRPPRLPRPRPRPCDNPRP
4. RRIRIRPPRLPRPRPRPEMCPRP
5. RRIRRRPPRLPRPRPRPPDAPRP
6. RRIRNRPPRLPRPRPRPVGRPRP
7. RRIRFRPPRLPRPRPRPSDEPRP

Output line:
0.302
-0.0108
-0.161
0.0321
0.768
0.118
-0.308

====

system: Escherichia coli TOP10; test: shrunken log2 fold change of peptide-encoding DNA abundance (4.5 h post-induction vs induction); higher = less antimicrobial activity (less host growth inhibition); settings: time post-induction: 4.5 h; library: site-saturation at positions 5, 18, 19, 20
Kindly note that classification relies on shrunken log2 fold change with these boundaries: low-valued (below -0.1), mid-valued (-0.1 to below 0.03), high-valued (0.03 or more)

RRIRQRPPRLPRPRPRPYLGPRP
mid-valued

Input line: Given `RRIRQRPPRLPRPRPRPAWIPRP` , name the class its shrunken log2 fold change places it in.
Output line: mid-valued

Input line: Given `RRIRERPPRLPRPRPRPHESPRP` , name the class its shrunken log2 fold change places it in.
Output line: mid-valued

Input line: Given `RRIRWRPPRLPRPRPRPCRNPRP` , name the class its shrunken log2 fold change places it in.
Output line: mid-valued

Input line: Given `RRIRARPPRLPRPRPRPAQVPRP` , name the class its shrunken log2 fold change places it in.
Output line: high-valued

Input line: Given `RRIRERPPRLPRPRPRPPALPRP` , name the class its shrunken log2 fold change places it in.
Output line: high-valued

====

system: Escherichia coli TOP10; experiment: shrunken log2 fold change of peptide-encoding DNA abundance (4.5 h post-induction vs induction); higher = less antimicrobial activity (less host growth inhibition); conditions: time post-induction: 4.5 h; library: site-saturation at positions 5, 18, 19, 20
outcome measure: shrunken log2 fold change

RRIRTRPPRLPRPRPRPTQFPRP
0.0832
RRIRARPPRLPRPRPRPVDQPRP
0.607
RRIRKRPPRLPRPRPRPKEDPRP
0.795
RRIRFRPPRLPRPRPRPIRMPRP
-0.191
RRIRFRPPRLPRPRPRPFLWPRP
-0.0874

For each of the sequences below, state shrunken log2 fold change.
1. RRIRKRPPRLPRPRPRPYYHPRP
2. RRIRHRPPRLPRPRPRPPNVPRP
3. RRIRDRPPRLPRPRPRPCYQPRP

Output line:
1: 0.158; 2: -0.0106; 3: -0.0177

====

tested on: Escherichia coli TOP10; experiment: shrunken log2 fold change of peptide-encoding DNA abundance (4.5 h post-induction vs induction); higher = less antimicrobial activity (less host growth inhibition); settings: time post-induction: 4.5 h; library: site-saturation at positions 5, 18, 19, 20
# cutoff 0.1 applies to shrunken log2 fold change; >= gives y, < gives n

These solved cases illustrate the format of a correct answer.
RRIRNRPPRLPRPRPRPPMEPRP
n
RRIRGRPPRLPRPRPRPRYGPRP
y

Now examine the next entry.
Input line: Is it the case that `RRIRPRPPRLPRPRPRPLRIPRP` has shrunken log2 fold change reaching or exceeding 0.1?
Output line: n

====

system: Escherichia coli TOP10; assay: shrunken log2 fold change of peptide-encoding DNA abundance (4.5 h post-induction vs induction); higher = less antimicrobial activity (less host growth inhibition); conditions: time post-induction: 4.5 h; library: site-saturation at positions 5, 18, 19, 20
Kindly note that classification relies on shrunken log2 fold change with these boundaries: low class: < -0.2; middle class: ≥ -0.2 and < 0.07; high class: ≥ 0.07

These solved cases illustrate the format of a correct answer.
RRIRVRPPRLPRPRPRPAEIPRP
middle class
RRIRERPPRLPRPRPRPEKYPRP
low class
RRIRTRPPRLPRPRPRPFKEPRP
middle class
RRIRLRPPRLPRPRPRPHKWPRP
middle class

Input line: Given `RRIRYRPPRLPRPRPRPGRYPRP` , name the class its shrunken log2 fold change places it in.
Output line: low class

Input line: Given `RRIRSRPPRLPRPRPRPQNDPRP` , name the class its shrunken log2 fold change places it in.
Output line: middle class

====

test system: Escherichia coli TOP10; experiment: shrunken log2 fold change of peptide-encoding DNA abundance (4.5 h post-induction vs induction); higher = less antimicrobial activity (less host growth inhibition); settings: time post-induction: 4.5 h; library: site-saturation at positions 5, 18, 19, 20
Kindly note that classification relies on shrunken log2 fold change with these boundaries: lower band (below -0.04), central band (-0.04 to below 0.1), upper band (0.1 or more)

These solved cases illustrate the format of a correct answer.
RRIRHRPPRLPRPRPRPFLTPRP
lower band
RRIRLRPPRLPRPRPRPRCHPRP
lower band
RRIRGRPPRLPRPRPRPPKRPRP
upper band
RRIRERPPRLPRPRPRPVQGPRP
upper band
RRIRSRPPRLPRPRPRPKKIPRP
upper band

Input line: Given `RRIRTRPPRLPRPRPRPYQDPRP` , name the class its shrunken log2 fold change places it in.
Output line: central band

Input line: Given `RRIRHRPPRLPRPRPRPHHAPRP` , name the class its shrunken log2 fold change places it in.
Output line: central band

Input line: Given `RRIRYRPPRLPRPRPRPSLSPRP` , name the class its shrunken log2 fold change places it in.
Output line: lower band

====

tested on: Escherichia coli TOP10; experiment: shrunken log2 fold change of peptide-encoding DNA abundance (4.5 h post-induction vs induction); higher = less antimicrobial activity (less host growth inhibition); conditions: time post-induction: 4.5 h; library: site-saturation at positions 5, 18, 19, 20
outcome measure: shrunken log2 fold change

For each of the sequences below, state shrunken log2 fold change.
1. RRIRVRPPRLPRPRPRPDTEPRP
2. RRIRTRPPRLPRPRPRPWSFPRP
3. RRIRERPPRLPRPRPRPFTPPRP
4. RRIRSRPPRLPRPRPRPFRHPRP
5. RRIRARPPRLPRPRPRPNPMPRP
6. RRIRIRPPRLPRPRPRPIVKPRP

Output line:
0.0532
-0.0893
0.116
-0.0389
0.287
-0.0118

====

test system: Escherichia coli TOP10; test: shrunken log2 fold change of peptide-encoding DNA abundance (4.5 h post-induction vs induction); higher = less antimicrobial activity (less host growth inhibition); conditions: time post-induction: 4.5 h; library: site-saturation at positions 5, 18, 19, 20;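 further: peptides expressed intracellularly from a pBAD plasmid library in pooled LB shake-flask culture, induced with 0.3% L-arabinose, DNA abundance read by NGS, three biological replicates, DESeq2 with apeglm shrinkage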
outcome measure: shrunken log2 fold change

RRIRPRPPRLPRPRPRPIIWPRP
-0.0266
RRIRNRPPRLPRPRPRPVEAPRP
0.277
RRIRERPPRLPRPRPRPKNWPRP
1.59
RRIRPRPPRLPRPRPRPDINPRP
-0.673
RRIRQRPPRLPRPRPRPPTCPRP
0.224

For each of the sequences below, state shrunken log2 fold change.
1. RRIRLRPPRLPRPRPRPICQPRP
2. RRIRDRPPRLPRPRPRPLAMPRP
3. RRIRWRPPRLPRPRPRPYHMPRP
4. RRIRYRPPRLPRPRPRPWQQPRP
5. RRIRCRPPRLPRPRPRPMWDPRP
6. RRIRPRPPRLPRPRPRPGPLPRP

Output line:
0.0108
0.767
-0.591
-0.273
-0.317
0.193
